# experimentalSystem: shed MICA004 polypeptide (human) (UniProt Q29983)
# testSummary: capture ELISA (anti-hFc / antibody / shed antigen / biotin-6D4)
observedProperty: EC50 (µg/mL)
Just the number in µg/mL, nothing appended.

Task: Can you look up the measured EC50 of 13A9 (antibody, human IgG1, kappa, V domains shown) VH: QVQLQQSGAELVRPGTSVKVSCKASGYAFTNYLIEWVKQRPGQGLEWIGAINPGSGATNYNEKFKDKARLTADKSSNTAYLQFSSLTSDDSAVYFCARFLGNYFDNWGQGATLTVSS VL: DIQMTQSPASLSASVGETVTITCRASGNIHSYLAWYQQKQGKSPQLLVYYAETLADGVPSRFSGRGSGTQYSLKINSLQPEDFGSYFCQQFWTTPYTFGGGTKVEIKR for me?
Result: 0.33

Task: Can you look up the measured EC50 of 3F9 (antibody, human IgG1, kappa, V domains shown) VH: QVQLVESGGGLVKPGGSLRLSCAASGFTFSNYAMSWIRQAPGKGLEWVSYISPGGDYIYYADSVKGRFTISRDNAKNSLYLQMNSLRAEDTAVYYCTTDRRHYGSYAMDYWGQGTLVTVSS VL: DIVMTQSPLSLPVTPGEPASISCRSSKSLLHSNLNTYLYWFLQKPGQSPQILIYRMSNLASGVPDRFSGSGSGTAFTLKISRVEAEDVGVYYCMQHLEYPFTFGPGTKLEIKR for me?
Result: 0.14

Task: Can you look up the measured EC50 of #40 (antibody, V domains shown) VH: QVQLQQSGPELVKPGASVKVSCKASGYAFTKYNIYWVKQSHGKSLEWIGYIDPYNGGTVYNQKFKGKATLTVDKSSSTAYMHLNSLTSEDSAVYYCATTDGYSLFTYWGQGTLVTVSA VL: DIQMTQTTSSLSASLGDRVTITCSAGQGINNYLNWYQQKPDGTVKLLIFYTSSLQSGVPSRFSGSGSGADYSLTISNLEPEDIATYYCQQYSKLPLTFGAGTKLELK for me?
Result: 0.38

Task: Can you look up the measured EC50 of #36 (antibody, V domains shown) VH: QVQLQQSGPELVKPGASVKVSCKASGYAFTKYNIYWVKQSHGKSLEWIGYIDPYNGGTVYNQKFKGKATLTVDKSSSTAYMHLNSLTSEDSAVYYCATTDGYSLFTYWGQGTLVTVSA VL: DIQMTQTTSSLSASLGDRVTISCRASQDISNYLNWYQQKPDGTVKLLIYYTSRLHSGVPSRFSGSGSGTDYSLTISNLEQEDIATYFCQQGNTLPFTFGSGTKLEIK for me?
Result: 0.47

Task: Can you look up the measured EC50 of #38 (antibody, V domains shown) VH: QVQLQQSGAELARPGASVKLSCKASGYTFSIHWMQWVKQRPGQGLEWIGAIYPGNGDTKYTQKFKGKATLTADKSSSTAYMQLSNLASEDSAVYYCATLYGNYEAYWGQGTLVTVSA VL: DIVLTQSPASLSASVGETVTITCGASENIYGALNWYQRKQGKSPQLLIYGTTNLADGMSSRFSGSGSGRQYSLKISSLHPDDVATYYCQNVLTTPPWTFGGGTKLEIK for me?
Result: 0.09
